Reference source: PubChem BioAssay (NCI)

# Test system: M14 melanoma
# Assay: NCI-60 one-dose screen, 48 h (100 = growth as untreated, 0 = no growth, -100 = all killed)
# Reported conditions: 10 µM unless noted
About 83,000 compounds went through this panel and 20% of them were active in at least one assay; those are over-represented in the sample as a whole.
Below, each of the compounds is paired with its reported growth value.
Respond with the bare value in %.

Below: 3 compounds and their reported growth.
INSERT INTO results (compound, system_under_test, test_result) VALUES
  ('COc1ccc(-c2cc(-c3c(C)oc4cc5occc5c(OC)c4c3=O)nc(N)c2C#N)cc1OC', 'M14 melanoma', 72.2),
  ('Nc1c(C(=O)Nc2c(Cl)cccc2Cl)sc2nc3c(cc12)CCCC3', 'M14 melanoma', 46.6),
  ('Nc1nc(Br)nc2c1ncn2C1CC(O)C(CO)O1 (centres undefined)', 'M14 melanoma', -0.9);

Given the compound `CN1CCN(c2nc(-c3csc(-c4cccs4)n3)cc3ccccc23)CC1` , what is its reported growth?
-44.9

Given the compound `Fc1ccc2nc(-c3cc(-c4ccc5c(c4)OCO5)n[nH]3)[nH]c2c1` , what is its reported growth?
49.5

Given the compound `NCCn1cc(-c2nc(-c3c[nH]c4ncccc34)cs2)c2cc(Br)ccc21` , what is its reported growth?
87.7

Given the compound `C#Cc1cc2c(N)c(C(=O)c3cc(OC)c(OC)c(OC)c3)[nH]c2cc1OC` , what is its reported growth?
19.9

Given the compound `COc1cnc2c(c1)C(=O)c1c-2n(CCCNC2=NCCS2)c(=O)c2cc([N+](=O)[O-])ccc12` , what is its reported growth?
-73.5

Given the compound `Cc1cccc(C)c1NCc1nc(-c2ccccc2)n[nH]1` , what is its reported growth?
97.9

Given the compound `O=C1/C(=C\c2ccc(Br)o2)SC(=S)N1CCc1ccc(O)cc1` , what is its reported growth?
73.7

Given the compound `C=C(C)[C@@H]1CC[C@]2(C(=O)O)CC[C@]3(C)[C@H](CC[C@@H]4[C@@]5(C)C/C(=C/c6ccc(OC)cc6)C(=O)C(C)(C)[C@@H]5CC[C@]43C)[C@@H]12` , what is its reported growth?
25.3

Given the compound `COc1ccc(C2(Cl)c3ccccc3N(c3ccccc3)c3ccccc32)cc1` , what is its reported growth?
-55.1

Given the compound COc1ccc2c(c1)C(Br)=C(CCO)C2c1ccccc1 (centres undefined) , what is its reported growth?
89

Given the compound `COC(=O)[C@]12CC[C@@H](C(C)=O)[C@@H]1[C@H]1CC[C@@H]3[C@@]4(C)C/C(=C/c5cccnc5)C(=O)C(C)(C)[C@@H]4CC[C@@]3(C)[C@]1(C)CC2` , what is its reported growth?
56.7

Given the compound `Brc1ccc2[nH]cc(-c3nc(-c4c[nH]c5ncccc45)cs3)c2c1` , what is its reported growth?
8.64

Given the compound `Cc1ccc(Cc2cnc(NC(=O)/C=C/c3cccc(C)c3)s2)cc1` , what is its reported growth?
-12.4

Given the compound `CCN1CCN(C(=O)[C@@]2(C)CC[C@]3(C)CC[C@]4(C)C(=CC(=O)[C@@H]5[C@@]6(C)CC[C@H](OCCC#N)C(C)(C)[C@@H]6CC[C@]54C)[C@@H]3C2)CC1` , what is its reported growth?
96

Given the compound `Cn1cc(-c2csc(-c3cn(CCCN4CCCCC4)c4ccc(Br)cc34)n2)c2cccnc21` , what is its reported growth?
-88.1

Given the compound N#CC1c2ccccc2-c2ccccc2N1C(=O)c1ccccc1 (centres undefined) , what is its reported growth?
2.12
